# System: IL-10
# assay.summary: LPS-stimulated hPBMC cytokine/chemokine production: IL-10 enhancement
# Format: cell-based, human
Please provide measured IL-10 (% of control) for the entries that follow.

Exercise: For the record Nc1cccc2c1C(=O)N(C1CCC(=O)NC1=O)C2=O (stereo not shown) [pomalidomide, reference compound] , what value of IL-10 (% of control) is listed for IL-10?
Key: 684 % of control

Exercise: Field: IL-10 (% of control) (IL-10). Entry: Nc1cccc2c1CN(C1CCC(=O)NC1=O)C2=O (stereo not shown) [lenalidomide, reference compound]
Key: 540 % of control

Exercise: Query for IL-10: what IL-10 (% of control) does the record show for O=C1CCC(N2Cc3c(OCc4ccc(CN5CCOCC5)cc4)cccc3C2=O)C(=O)N1 (stereo not shown) ?
Key: 372 % of control

Exercise: IL-10 (% of control) of Cc1nc2cccc(N)c2c(=O)n1C1CCC(=O)NC1=O (stereo not shown) [Compound A] on IL-10?
Key: 480 % of control

Exercise: Reported IL-10 (% of control) for IL-10, given `O=C1CC[C@H](N2Cc3c(OCc4ccc(CN5CCOCC5)cc4)cccc3C2=O)C(=O)N1` ?
Key: 379 % of control

Exercise: Notebook: pull reported IL-10 (% of control) for IL-10, entry `O=C1CC[C@@H](N2Cc3c(OCc4ccc(CN5CCOCC5)cc4)cccc3C2=O)C(=O)N1`
Key: 442 % of control

Exercise: API: value(readout= IL-10 (% of control), system= IL-10, query= O=C1CCC(N2C(=O)c3ccccc3C2=O)C(=O)N1 (stereo not shown) [thalidomide, reference compound] )
Key: 170 % of control
